Experiment: NCI Yeast Anticancer Drug Screen. Data for the cln2 rad14 strain (AID 165);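 further: 0% = growth equal to vehicle treated cultures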
Conditions: S. cerevisiae cln2 rad14 strain, at 50.0 µM, stronger effect = higher value
The panel holds about 79,000 compounds, 15% with a hit somewhere; the sample as a whole holds those more often.
reported property: growth inhibition (%)
Use % as the unit, but write only the number.

Completed entries (count: 2):
{"compound": "CC(=O)c1cc(C(C)=O)c2cc(C)cc(O)c2c1O", "unit text": "%", "reading": 1.9}
{"compound": "CC(=O)CC(=O)Nc1ccccc1[N+](=O)[O-]", "unit text": "%", "reading": 15.9}

Q: Fill blank: measured growth inhibition of the compound `CN(C)CCOC(=O)c1cccc(CCl)c1` is ____.
Ans: 44.4

Q: Fill blank: measured growth inhibition of the compound `COc1cc(/C=N\N=C(/C)c2ccc(C)cc2C)cc(OC)c1OC` is ____.
Ans: 22.9

Q: Fill blank: measured growth inhibition of the compound `CC(=O)N(CCCCNC(=O)C(F)(F)F)CCCNC(=O)C(F)(F)F` is ____.
Ans: 5.15

Q: Fill blank: measured growth inhibition of the compound CCCCCCC(C#N)(CCN(C)C)c1ccccc1 (stereo unspecified) is ____.
Ans: -8

---

Experiment: NCI Yeast Anticancer Drug Screen. Data for the rad50 strain (AID 155);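 further: 0% = growth of vehicle-only cultures of the same strain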
Conditions: S. cerevisiae rad50 strain growth inhibition; at 50.0 µM
About 79,000 compounds went through this panel and 15% of them were active in at least one assay; those are over-represented in the sample as a whole. Activity calls are given as the source filed them. No stated cut-off is given here; in the data, active means growth inhibition above about 70%; inactive means the rest.
I would appreciate it if you answered using one of these outcomes: active, inactive

Check out these entries, answers already filled in.
{"molecule": "CCCC(=O)OCC1OC2OC(C)(C)OC2C2OC(C)(C)OC12 (stereo unspecified)", "label value": "inactive"}
{"molecule": "COc1cc([C@@H]2c3cc4c(cc3[C@H](OC3OC5COC(C(C)C)OC5C(O)C3O)C3COC(=O)[C@@H]32)OCO4)cc(OC)c1OC (stereo partly specified)", "label value": "inactive"}
{"molecule": "C(=N\\NC1=NCCCCN1)/c1ccc2ccccc2c1", "label value": "inactive"}
{"molecule": "Nc1nnc(-c2ccc(Cl)cc2)o1", "label value": "inactive"}
{"molecule": "CC(C(/C=N/NC(N)=S)=N/NC(N)=S)N1C(=O)c2ccccc2C1=O (stereo unspecified)", "label value": "inactive"}

Q: Returns: the outcome recorded for CC1CCOC2(CCCCC2)O1 (stereo unspecified) in this assay.
Ans: inactive

Q: Returns: the outcome recorded for CC(C)N1COC(c2ccccc2)C1 (stereo unspecified) in this assay.
Ans: inactive

Q: Returns: the outcome recorded for `O=P(Nc1cccc(Cl)c1)(Nc1cccc(Cl)c1)c1ccccc1` in this assay.
Ans: active

Q: Returns: the outcome recorded for O=C(NC(CSSCC(NC(=O)OCc1ccccc1)C(=O)O)C(=O)O)OCc1ccccc1 (stereo unspecified) in this assay.
Ans: inactive

Q: Returns: the outcome recorded for `CN(CCN(C)C(=O)CCOS(C)(=O)=O)C(=O)CCOS(C)(=O)=O` in this assay.
Ans: inactive

Q: Returns: the outcome recorded for `CC(=O)[O-].[Mn+3].[O-]c1ccccc1C=NCCNCCN=Cc1ccccc1[O-]` in this assay.
Ans: inactive

---

Assay: NCI Yeast Anticancer Drug Screen. Data for the rad50 strain (AID 155);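 further: 0% = growth of vehicle-only cultures of the same strain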
Details: S. cerevisiae rad50 strain growth inhibition; at 50.0 µM; stronger effect = higher value
This is part of a sample that, as a whole, favours compounds with a hit. Of some 79,000 tested, about 15% had one in any assay.
reported property: growth inhibition (%)
Use % as the unit, but write only the number.

Completed entries (count: 4):
{"molecule": "C#CCOCn1cc(C)c(=O)[nH]c1=O", "reading": 0.4}
{"molecule": "Cc1ccc(C)c(NC(=O)Oc2ccc(Cl)cc2Cc2ccccc2)c1", "reading": 5.35}
{"molecule": "CCOC(=O)c1n[nH]c(=S)[nH]c1=O", "reading": -7.95}
{"molecule": "N#CCCOC1C(OCCC#N)C(OCCC#N)C(OCCC#N)C(OCCC#N)C1OCCC#N (configuration not stated)", "reading": -14.2}

Q: Fill blank: measured growth inhibition of the molecule `O=C1NC(=O)c2ccc(Br)c3cccc1c23` is ____.
Ans: 17.9

Q: Fill blank: measured growth inhibition of the molecule `Cc1ccc(NC(=S)NCCc2ccccn2)cc1C` is ____.
Ans: 29.2

Q: Fill blank: measured growth inhibition of the molecule `CCOC(=O)Cc1csc(N=Nc2c(O)[nH]c3ccccc23)n1` is ____.
Ans: -2.55

Data origin, for the record: PubChem BioAssay (NCI)
